Ref: patent EP0671905B1

test.description: Tryptophan fluorescence emission spectra of protein:lipid complexes
Assay type: physicochemical
run.parameters: mole ratio lipid:rhG-CSF 100:1
experimental.readout: insertion of rhG-CSF into lipid vesicles (F/FO and emission maximum)

CCCCCCCCCCCCCCCC(=O)OCC(COP(=O)(O)OCC(O)CO)OC(=O)CCCCCCCCCCCCCCC (stereo not shown) [DPPG, dipalmitoylphosphatidylglycerol] = can insert
CCCCCCCCCCCCCC(=O)OCC(COP(=O)(O)OCC(O)CO)OC(=O)CCCCCCCCCCCCC (stereo not shown) [DMPG, dimyristoylphosphatidylglycerol] = can insert
CCCCCCCC/C=C\CCCCCCCC(=O)OC[C@H](COP(=O)(O)OCC(O)CO)OC(=O)CCCCCCC/C=C\CCCCCCCC (stereo partly shown) [DOPG, dioleoylphosphatidylglycerol] = can insert
